Tested on: Bacillus subtilis
RUN_DESCRIPTION: Antibacterial activity against tetracycline-resistant Bacillus subtilis ATCC 6633 assessed as growth inhibition by MTT assay
Type: functional
METRIC: MIC50

input: MIC50 for "CCn1cc(C(=O)O)c(=O)c2cc(F)c(N3CCN(CCOc4cc(O)c5c(=O)cc(-c6ccc(O)cc6)oc5c4)CC3)cc21" ?
output: 22.9 µg/mL

input: Please look up its MIC50: "O=C1C[C@@H](c2ccc(O)cc2)Oc2cc(OCCN3CCN(c4cc5c(cc4F)c(=O)c(C(=O)O)cn5-c4ccc(F)cc4)CC3)cc(O)c21"
output: 0.22 µg/mL

input: I have this compound here, "O=C(O)c1cn(-c2ccc(F)cc2)c2cc(N3CCN(CCOc4cc(O)c5c(=O)cc(-c6ccc(O)cc6)oc5c4)CC3)c(F)cc2c1=O" , and I need its recorded MIC50.
output: 14 µg/mL

input: State the recorded MIC50 for this entry: CCn1cc(C(=O)O)c(=O)c2cc(F)c(N3CCN(CCOc4cc(O)c5c(c4)O[C@H](c4ccc(O)cc4)CC5=O)C(C)C3)c(F)c21 (some centres not stated)
output: 1.4 µg/mL

input: Field request: MIC50 | item: "CCn1cc(C(=O)O)c(=O)c2ccc(N3CCN(CCOc4cc(O)c5c(c4)O[C@H](c4ccc(O)cc4)CC5=O)CC3)nc21"
output: 0.45 µg/mL

input: Return reported MIC50; argument: CCn1cc(C(=O)O)c(=O)c2cc(F)c(N3CCN(CCOc4cc(O)c5c(=O)cc(-c6ccccc6)oc5c4)C(C)C3)c(F)c21 (configuration not stated)
output: > 50 µg/mL

input: Please give the measured MIC50 for this compound: "CCn1cc(C(=O)O)c(=O)c2cc(F)c(N3CCN(CCOc4cc(O)c5c(=O)c(-c6ccc(OC)cc6)coc5c4)CC3)cc21"
output: 32.8 µg/mL

---

Tested on: Bacillus subtilis
RUN_DESCRIPTION: Antibacterial activity against tetracycline-resistant Bacillus subtilis ATCC 6633 assessed as growth inhibition by MTT assay
Format: functional
Give measured MIC50 for each item. Keep answers brief.
Please give a number only; it is taken to be in µg/mL.

input: State the recorded MIC50 for this entry: "COc1ccc(-c2coc3cc(OCCN4CCN(c5cc6c(cc5F)c(=O)c(C(=O)O)cn6-c5ccc(F)cc5)CC4)cc(O)c3c2=O)cc1"
output: 17.8

input: Would you kindly share the measured MIC50 for "O=C(O)c1cn(C2CC2)c2cc(N3CCN(CCOc4cc(O)c5c(=O)cc(-c6ccccc6)oc5c4)CC3)c(F)cc2c1=O" ?
output: 4.43

input: Entry "Nc1c(F)c(N2CCN(CCOc3cc(O)c4c(=O)cc(-c5ccccc5)oc4c3)CC2)cc2c1c(=O)c(C(=O)O)cn2-c1ccc(F)cc1" has what MIC50?
output: 26.7

input: Reported MIC50, compound "CCn1cc(C(=O)O)c(=O)c2cc(F)c(N3CCN(CCOc4cc(O)c5c(=O)cc(-c6ccccc6)oc5c4)CC3)cc21" : ____
output: 41.9

input: Any idea what MIC50 was measured for O=C(O)c1cn(C2CC2)c2cc(N3CCNCC3)c(F)cc2c1=O [CIPROFLOXACIN] ?
output: 2.7

input: Value lookup for MIC50; key = "CCn1cc(C(=O)O)c(=O)c2cc(F)c(N3CCN(CCOc4cc(O)c5c(=O)c(-c6ccc(O)cc6)coc5c4)CC3)cc21"
output: 3.33

---

System: Escherichia coli
RUN_DESCRIPTION: Antibacterial activity against multidrug resistant Escherichia coli ATCC 35218 assessed as growth inhibition by MTT assay
Format: functional
Kindly state MIC50 for each of the entries shown.

input: # query: MIC50 of entry CCn1cc(C(=O)O)c(=O)c2cc(F)c(N3CCN(CCOc4cc(O)c5c(c4)O[C@H](c4ccc(O)cc4)CC5=O)C(C)C3)c(F)c21 (stereo partly specified)
output: > 50 µg/mL

input: Query: MIC50; subject: "O=C(O)c1cn(-c2ccc(F)cc2)c2cc(N3CCN(CCOc4cc(O)c5c(=O)cc(-c6ccc(O)cc6)oc5c4)CC3)c(F)cc2c1=O"
output: > 50 µg/mL

input: Which MIC50 value belongs to "O=C(O)c1cn(C2CC2)c2cc(N3CCN(CCOc4cc(O)c5c(=O)c(-c6ccc(O)cc6)coc5c4)CC3)c(F)cc2c1=O" ?
output: 26.7 µg/mL

input: Quick one: MIC50 for CC1CN(c2c(F)c(N)c3c(=O)c(C(=O)O)cn(C4CC4)c3c2F)CC(C)N1CCOc1cc(O)c2c(=O)cc(-c3ccccc3)oc2c1 (stereo unspecified) ?
output: > 50 µg/mL

input: Quick one: MIC50 for "O=C1C[C@@H](c2ccc(O)cc2)Oc2cc(OCCN3CCN(c4cc5c(cc4F)c(=O)c(C(=O)O)cn5-c4ccc(F)cc4)CC3)cc(O)c21" ?
output: 17.5 µg/mL

input: Requested field: MIC50. Item: CCn1cc(C(=O)O)c(=O)c2cc(F)c(N3CCN(CCOc4cc(O)c5c(=O)c(-c6ccc(O)cc6)coc5c4)C(C)C3)c(F)c21 (stereo unspecified)
output: > 50 µg/mL
